The next entries give measured Ki for Histamine H3 (Homo sapiens, UniProt Q9Y5N1).
The reply should be a number in µM, with the unit left off.

Known Ki results, listed for orientation:
[[record]]
compound = "CCN(CCCNC(=O)c1ccc(-c2ccncc2)cc1)CCNC(=O)c1cc(Br)cc(OC)c1OC [21c]"
readout_number = 4.73

[[record]]
compound = "CCN(CCCNC(=O)c1ccc(-c2cccs2)cc1)CCNC(=O)c1cc(Br)cc(OC)c1OC"
readout_number = 5.58


For the next question, use this compound.
Exam item: Histamine H3 (Homo sapiens, UniProt Q9Y5N1) / Ki / CCN(CCCNC(=O)c1ccc(-c2ccsc2)cc1)CCNC(=O)c1cc(Br)cc(OC)c1OC [21g] : value?
Marked response: 4.81

###

Target: Adrenergic alpha1B (Homo sapiens)
Sequence (P35368 1-520): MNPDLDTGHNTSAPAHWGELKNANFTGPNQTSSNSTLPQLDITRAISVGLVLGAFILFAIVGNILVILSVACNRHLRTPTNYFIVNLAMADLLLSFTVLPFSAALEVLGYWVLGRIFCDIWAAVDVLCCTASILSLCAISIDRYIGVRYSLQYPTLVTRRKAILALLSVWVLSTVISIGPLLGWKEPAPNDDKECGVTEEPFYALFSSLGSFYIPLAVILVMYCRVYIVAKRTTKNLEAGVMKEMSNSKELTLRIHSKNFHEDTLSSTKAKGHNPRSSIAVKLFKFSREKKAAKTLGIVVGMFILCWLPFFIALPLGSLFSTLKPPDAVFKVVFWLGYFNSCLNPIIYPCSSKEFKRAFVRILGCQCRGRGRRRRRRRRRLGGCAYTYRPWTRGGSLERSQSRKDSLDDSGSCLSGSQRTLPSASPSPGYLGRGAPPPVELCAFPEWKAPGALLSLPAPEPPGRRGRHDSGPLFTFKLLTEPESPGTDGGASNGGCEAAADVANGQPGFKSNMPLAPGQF
Measured Quantity: Ki (nM)
Expressed in nM, but write only the number.

Reference set (3 entries):
[[record]]
compound = "CCN(CCCNC(=O)c1ccc2ccccc2c1)CCNC(=O)c1cc(Br)cc(OC)c1OC [21a]"
readout_number = 3940

[[record]]
compound = "CCN(CCCNC(=O)c1ccc(-c2cccs2)cc1)CCNC(=O)c1cc(Br)cc(OC)c1OC [9a]"
readout_number = 2190

[[record]]
compound = "CCN(CCCNC(=O)c1ccc(-c2ccsc2)cc1)CCNC(=O)c1cc(Br)cc(OC)c1OC [21g]"
readout_number = 1630


// next item, Ki requested
Exam item: Please tell me: Ki of CCCN(CCCNC(=O)c1ccc(-c2cccs2)cc1)CCNC(=O)c1cc(Br)cc(OC)c1OC [20a] , system Adrenergic alpha1B (Homo sapiens)?
Marked response: 1400

###

Molecular target: Muscarinic M4 (Homo sapiens, UniProt P08173)
Sequence (P08173 1-479): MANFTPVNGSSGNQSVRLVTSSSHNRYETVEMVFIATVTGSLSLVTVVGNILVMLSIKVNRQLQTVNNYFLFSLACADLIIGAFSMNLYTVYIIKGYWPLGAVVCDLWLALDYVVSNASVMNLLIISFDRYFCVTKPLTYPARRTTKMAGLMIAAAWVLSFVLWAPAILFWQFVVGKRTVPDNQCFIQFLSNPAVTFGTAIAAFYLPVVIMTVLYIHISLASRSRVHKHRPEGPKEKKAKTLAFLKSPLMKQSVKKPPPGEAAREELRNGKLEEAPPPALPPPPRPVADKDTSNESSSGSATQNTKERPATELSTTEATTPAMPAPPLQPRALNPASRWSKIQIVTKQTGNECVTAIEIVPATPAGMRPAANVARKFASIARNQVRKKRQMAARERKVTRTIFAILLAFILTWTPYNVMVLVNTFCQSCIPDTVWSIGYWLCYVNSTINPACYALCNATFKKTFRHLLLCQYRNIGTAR
Measured Quantity: Ki (nM)
Numeric answer only, unit nM assumed.

Some entries whose results are on file:
[[record]]
molecule = "CCN(CCCNC(=O)c1ccc(-c2ccncc2)cc1)CCNC(=O)c1cc(Br)cc(OC)c1OC [21c]"
target_system = "Muscarinic M4 (Homo sapiens, UniProt P08173)"
measured_quantity = "Ki"
unit_name = "nM"
readout_number = 930

[[record]]
molecule = "CCN(CCCNC(=O)c1ccc(-c2ccsc2)cc1)CCNC(=O)c1cc(Br)cc(OC)c1OC [21g]"
target_system = "Muscarinic M4 (Homo sapiens, UniProt P08173)"
measured_quantity = "Ki"
unit_name = "nM"
readout_number = 1090


Now, please, on to the next molecule.
Exam item: Which Ki value is on record for CCN(CCCNC(=O)c1ccc(-c2cccs2)cc1)CCNC(=O)c1cc(Br)cc(OC)c1OC ?
Marked response: 1600

###

Observed pKi for Muscarinic M3 (Homo sapiens, UniProt P20309), reported per entry below.
The read-out pKi is expressed as -log10 of concentration in moles per litre.

Example entries begin here.
[[record]]
molecule = "CCN(CCCNC(=O)c1ccc2ccccc2c1)CCNC(=O)c1cc(Br)cc(OC)c1OC [21a]"
measured_quantity = "pKi"
readout_number = 5.90

[[record]]
molecule = "CCN(CCCNC(=O)c1ccc(-c2cccs2)cc1)CCNC(=O)c1cc(Br)cc(OC)c1OC"
measured_quantity = "pKi"
readout_number = 5.32


Note: attention shifts to another entry.
Exam item: For Muscarinic M3 (Homo sapiens, UniProt P20309), provide pKi of CCN(CCCNC(=O)c1cn2ccccc2n1)CCNC(=O)c1cc(Br)cc(OC)c1OC [21e] please.
Marked response: 5.81

###

target: Dopamine D2 (Homo sapiens, UniProt P14416); assay: PDSP binding screen
Sequence (P14416 whole entry): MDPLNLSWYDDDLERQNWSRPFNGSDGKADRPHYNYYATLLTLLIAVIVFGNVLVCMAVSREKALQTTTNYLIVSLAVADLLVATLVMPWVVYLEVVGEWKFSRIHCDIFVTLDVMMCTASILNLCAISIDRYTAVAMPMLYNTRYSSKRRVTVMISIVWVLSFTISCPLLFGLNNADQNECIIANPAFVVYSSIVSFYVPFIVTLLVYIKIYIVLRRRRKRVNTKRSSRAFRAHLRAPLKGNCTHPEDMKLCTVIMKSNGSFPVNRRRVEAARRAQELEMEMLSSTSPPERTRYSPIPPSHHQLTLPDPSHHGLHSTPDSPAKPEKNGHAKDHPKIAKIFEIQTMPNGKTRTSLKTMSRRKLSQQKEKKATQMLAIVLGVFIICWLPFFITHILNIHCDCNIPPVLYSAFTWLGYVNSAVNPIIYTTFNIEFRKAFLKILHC
Measured Quantity: pKi
# pKi = -log10(concentration in molar units)

[[record]]
compound = "CCN(CCCNC(=O)c1ccsc1)CCNC(=O)c1cc(Br)cc(OC)c1OC [21i]"
readout_number = 7.40


Exam item: For CCN(CCCNC(=O)c1cc2ccccc2[nH]1)CCNC(=O)c1cc(Br)cc(OC)c1OC [21d] , what is its reported pKi?
Marked response: 7.05

Exam item: Entry CCCN(CCCNC(=O)c1ccc(-c2cccs2)cc1)CCNC(=O)c1cc(Br)cc(OC)c1OC [20a] has what pKi?
Marked response: 6.73

###

Parameter 'readout' = pKi; parameter 'system' = Benzodiazepine receptor (PBR) (Rattus norvegicus).
Here pKi is given on a logarithmic scale as minus log10 of the concentration in mol/L.

Examples from the recorded data:
[[record]]
molecule = "CCN(CCCNC(=O)c1cn2ccccc2n1)CCNC(=O)c1cc(Br)cc(OC)c1OC [21e]"
target_system = "Benzodiazepine receptor (PBR) (Rattus norvegicus)"
readout_number = 7.96

[[record]]
molecule = "CCCN(CCCNC(=O)c1ccc(-c2cccs2)cc1)CCNC(=O)c1cc(Br)cc(OC)c1OC [20a]"
target_system = "Benzodiazepine receptor (PBR) (Rattus norvegicus)"
readout_number = 8.05

[[record]]
molecule = "CCN(CCCNC(=O)c1ccc(-c2cccs2)cc1)CCNC(=O)c1cc(Br)cc(OC)c1OC"
target_system = "Benzodiazepine receptor (PBR) (Rattus norvegicus)"
readout_number = 5.84

[[record]]
molecule = "CCN(CCCNC(=O)c1ccc(-c2ccsc2)cc1)CCNC(=O)c1cc(Br)cc(OC)c1OC [21g]"
target_system = "Benzodiazepine receptor (PBR) (Rattus norvegicus)"
readout_number = 8.22

[[record]]
molecule = "CCN(CCCNC(=O)c1cc2ccccc2n1C)CCNC(=O)c1cc(Br)cc(OC)c1OC [21j]"
target_system = "Benzodiazepine receptor (PBR) (Rattus norvegicus)"
readout_number = 8.10

[[record]]
molecule = "CCN(CCCNC(=O)c1ccc2ccccc2c1)CCNC(=O)c1cc(Br)cc(OC)c1OC [21a]"
target_system = "Benzodiazepine receptor (PBR) (Rattus norvegicus)"
readout_number = 8.05


The record that follows has no pKi shown yet.
Exam item: Given the molecule CCN(CCCNC(=O)c1cc2ccccc2[nH]1)CCNC(=O)c1cc(Br)cc(OC)c1OC [21d] , what is its reported pKi?
Marked response: 5.91

###

Reported log10 of Ki values are given for each entry in this list.
Target: Serotonin 5-HT2C (Homo sapiens)
Sequence (P28335 33-458): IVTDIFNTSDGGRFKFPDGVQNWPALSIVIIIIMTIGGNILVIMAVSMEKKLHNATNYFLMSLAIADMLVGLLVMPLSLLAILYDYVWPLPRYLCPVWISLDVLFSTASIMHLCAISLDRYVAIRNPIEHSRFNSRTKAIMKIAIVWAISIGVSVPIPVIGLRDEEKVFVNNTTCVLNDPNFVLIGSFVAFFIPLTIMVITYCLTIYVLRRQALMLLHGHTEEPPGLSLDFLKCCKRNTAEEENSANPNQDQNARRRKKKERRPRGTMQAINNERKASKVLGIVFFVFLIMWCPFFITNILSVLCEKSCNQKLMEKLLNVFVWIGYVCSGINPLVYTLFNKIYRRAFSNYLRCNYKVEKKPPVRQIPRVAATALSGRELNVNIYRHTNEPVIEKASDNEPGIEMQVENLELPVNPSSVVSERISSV
Friendly reminder: values = log10 of Ki, unit nM.

Sample records with log10 of Ki:
[[record]]
molecule = "CCN(CCCNC(=O)c1ccc(-c2ccncc2)cc1)CCNC(=O)c1cc(Br)cc(OC)c1OC [21c]"
target_system = "Serotonin 5-HT2C (Homo sapiens)"
readout_number = 3.18

[[record]]
molecule = "CCN(CCCNC(=O)c1ccsc1)CCNC(=O)c1cc(Br)cc(OC)c1OC [21i]"
target_system = "Serotonin 5-HT2C (Homo sapiens)"
readout_number = 3.99

[[record]]
molecule = "CCN(CCCNC(=O)c1cn2ccccc2n1)CCNC(=O)c1cc(Br)cc(OC)c1OC [21e]"
target_system = "Serotonin 5-HT2C (Homo sapiens)"
readout_number = 3.76

[[record]]
molecule = "CCN(CCCNC(=O)c1ccc2ccccc2c1)CCNC(=O)c1cc(Br)cc(OC)c1OC [21a]"
target_system = "Serotonin 5-HT2C (Homo sapiens)"
readout_number = 3.12

[[record]]
molecule = "CCN(CCCNC(=O)c1ccc(-c2cccs2)cc1)CCNC(=O)c1cc(Br)cc(OC)c1OC [9a]"
target_system = "Serotonin 5-HT2C (Homo sapiens)"
readout_number = 2.76


Exam item: Notebook: pull reported log10 of Ki for Serotonin 5-HT2C (Homo sapiens), entry CCN(CCCNC(=O)c1ccc(-c2ccsc2)cc1)CCNC(=O)c1cc(Br)cc(OC)c1OC [21g]
Marked response: 2.55

Exam item: Please state recorded log10 of Ki (tested on Serotonin 5-HT2C (Homo sapiens)) of CCN(CCCNC(=O)c1cc2ccccc2n1C)CCNC(=O)c1cc(Br)cc(OC)c1OC [21j]
Marked response: 3.70

Exam item: Look up log10 of Ki with Serotonin 5-HT2C (Homo sapiens) for this molecule: CCN(CCCNC(=O)c1cc2ccccc2[nH]1)CCNC(=O)c1cc(Br)cc(OC)c1OC [21d]
Marked response: 3.32

Exam item: Notebook: pull reported log10 of Ki for Serotonin 5-HT2C (Homo sapiens), entry CCCN(CCCNC(=O)c1ccc(-c2cccs2)cc1)CCNC(=O)c1cc(Br)cc(OC)c1OC [20a]
Marked response: 3.31
